Provide the recorded GI50 for the entries that follow.
- Test system: UO-31
- Procedure Summary: NCI tumour cell line growth inhibition, 48 h
Calls of active or inactive are those of the source. No stated cut-off is given here; in the data, active = GI50 up to about 1.1 µM and inactive = higher.

*Q* Query (compound): C1=NN(Cc2ccccc2)C(N(Cc2ccccc2)Cc2ccccc2)N1 (stereo not given) ; field requested: GI50
*A* 14.2 µM (inactive)

*Q* And what about the compound Cc1ccc(C)c(NC(=O)C(=O)C(c2cnc3ccc([N+](=O)[O-])cc3n2)[N+](=O)[O-])c1 (stereo not given) ?
*A* 29.2 µM (inactive)

*Q* Same question, C/C(=C\CO)CC/C=C(\C)CNc1ccccc1 this time
*A* 38.1 µM (inactive)

*Q* Quick one: CCOC(=O)Cc1nc2c(N)ncnc2n1C1OC(COC(C)=O)C(OC(C)=O)C1OC(C)=O (stereo not given)
*A* > 100 µM (inactive)

*Q* Now give it for COc1cc2c3c(n(C)c(=O)c2cc1OC)-c1cc2c(cc1C3=O)OCO2 too.
*A* 1.63 µM (inactive)

*Q* Then this compound: COc1ccc2nc3cc(Cl)ccc3c(Sc3ccc(N)cc3)c2c1
*A* 10.8 µM (inactive)

*Q* Same lookup for Cc1cc(C)n(C(=C(C(Cl)=C(Cl)Cl)[N+](=O)[O-])n2nc(C)cc2C)n1 , please.
*A* 3.18 µM (inactive)

*Q* What do you get for Cc1noc(NS(=O)(=O)c2ccc(NC(=O)c3ccc4[nH]c5ccccc5c(=O)c4c3)cc2)c1C ?
*A* 75 µM (inactive)

*Q* CC(=O)Nn1c(Cc2ccc(Cl)cc2)nn(C)c1=O ?
*A* > 100 µM (inactive)

*Q* What do you get for CNC(=O)OCCN1c2ccccc2Sc2ccccc21 ?
*A* 69.2 µM (inactive)

*Q* Again, but for O=[N+]([O-])c1cccc(C2=NN(c3ccccc3)C3c4ccccc4OCC23)c1 (stereo not given)
*A* 6.71 µM (inactive)

*Q* Can you check C(/C=N/N=C1NCCN1)=N\N=C1NCCN1 next?
*A* > 100 µM (inactive)

*Q* Quick one: CN1C/C(=C\c2cccs2)C2=NN(C)C(c3cccs3)C2C1 (stereo not given)
*A* 75.7 µM (inactive)

*Q* Note, next up: CCCNC(=S)N/C=C1/C(=O)Oc2ccccc2C1=O
*A* 28.4 µM (inactive)

*Q* Next: CCOC(=O)C(=O)Nc1c(F)cc(F)cc1Br
*A* > 100 µM (inactive)

*Q* Another compound to check: CCOC(=O)NC(NNc1ccc([N+](=O)[O-])cc1[N+](=O)[O-])(C(F)(F)F)C(F)(F)F
*A* 21.9 µM (inactive)

*Q* Same again, this time with CCSc1nn(-c2c3ccccc3nc3ccccc23)c(=S)s1
*A* > 100 µM (inactive)

*Q* And then CC1(C)CC[C@]2(C(=O)O)CCC3(C)C(=CCC4[C@@]5(C)CC[C@H](OC6OCC(O)C(O)C6OC6OC(CO)C(O)C(O)C6O)C(C)(C)C5CC[C@]43C)C2C1 (stereo not given in full) , what is it?
*A* 2.16 µM (inactive)

*Q* Proceed to CS/C(=N/S(=O)(=O)c1ccc(Cl)cc1)NCCCN/C(=N\S(=O)(=O)c1ccc(Cl)cc1)SC
*A* 13 µM (inactive)

*Q* Let us now turn to O=C1/C(=C/c2ccccc2)CN(C(=O)Oc2ccc([N+](=O)[O-])cc2)C/C1=C\c1ccccc1
*A* 9.77 µM (inactive)

###

Would you mind telling me the reported GI50 of each entry?
- Tested on: SK-OV-3
- Procedure Summary: NCI tumour cell line growth inhibition, 48 h
Active and inactive are the calls of the source. Cut-off read from the data, not from the text of the source: active = GI50 up to about 1.1 µM and inactive = higher.

*Q* Requested field: GI50. Item: O=[N+]([O-])c1ccc(-c2ccc(/C=N/n3c(S)nnc3-c3ccc(Cl)cc3)o2)cc1
*A* > 40.7 µM (inactive)

*Q* Please answer likewise for O=C1C[C@@H]2C(COC(=O)c3ccccc3)N(OCc3ccccc3)C[C@@H]2O1 (stereo not given in full)
*A* > 100 µM (inactive)

*Q* Would you kindly repeat that for Cc1ccc(C)c(NC(=O)C(=O)C(c2cnc3ccc([N+](=O)[O-])cc3n2)[N+](=O)[O-])c1 (stereo not given) ?
*A* 32.4 µM (inactive)

*Q* Let us now turn to CCOC(=O)c1sc2nc(SC)nc3c2c1NCN3c1ccc2c(c1)OCCCO2
*A* 15.7 µM (inactive)

*Q* Next molecule: O=S(=O)(O)c1c(Cl)c(Cl)c(O)c2ncccc12
*A* 13 µM (inactive)

*Q* Consider next the molecule O=C(O)[C@@H]1CSCN1C(=O)[C@@H]1CCC(=S)N1 in the same way.
*A* > 100 µM (inactive)

*Q* For S=C1SC(c2ccc(Cl)cc2)(c2ccc(Cl)cc2)c2ccccc21 then?
*A* > 100 µM (inactive)

*Q* Next molecule: Cc1cc(C)nc(NCCC(O)(P(=O)(O)O)P(=O)(O)O)n1
*A* > 100 µM (inactive)

*Q* Similarly, COc1cc2cc(C(=O)N3C[C@H](CCl)c4c3cc(O)c3ccccc43)[nH]c2c(OC)c1OC ?
*A* 0.515 µM (active)

*Q* Repeat with Nc1ncnc2c1ncn2CCCC(c1ccccc1)P(=O)(O)O (stereo not given)
*A* > 100 µM (inactive)

###

- Test system: COLO 205
- Procedure Summary: NCI tumour cell line growth inhibition, 48 h
Activity calls are given as the source filed them. No stated cut-off is given here; in the data, active = GI50 up to about 1.1 µM and inactive = higher.
Property Measured: GI50

*Q* Notebook entry, COLO 205 assay: GI50 of COc1nc2c(c(=O)n1C)N=C(c1ccccc1)[C@H](C(CC(=O)c1ccccc1)c1ccccc1)C(c1ccccc1)N2 (some centres undefined) = ?
*A* 98.9 µM (inactive)

*Q* What do you get for COc1cc(O)c(C(=O)/C=C/c2ccc(O)cc2)cc1Oc1ccc(/C=C/C(=O)c2ccc(O)cc2O)cc1 [RHUSCHALCONE III] ?
*A* 8.43 µM (inactive)

*Q* Another: CC1(C)CC[C@]2(C(=O)O)CCC3(C)C(=CCC4[C@@]5(C)CC[C@H](OC6OCC(O)C(O)C6OC6OC(CO)C(O)C(O)C6O)C(C)(C)C5CC[C@]43C)C2C1 (some centres undefined)
*A* 1.89 µM (inactive)

*Q* What about O=c1[nH]c2cc([N+](=O)[O-])ccc2nc1/C(=N/Nc1ccccc1)C(O)c1ccccc1Cl (centres undefined) ?
*A* 39.7 µM (inactive)

*Q* Try this compound too: COc1ccc(/C(C#N)=C/c2ccc(OC)c(OC)c2)cc1
*A* > 100 µM (inactive)

*Q* How about this compound: COc1ccc2c(=O)c(-c3cc(OC)c(OC)cc3OC)coc2c1
*A* 3.32 µM (inactive)

*Q* Param item: O=c1[nH]nc(Cc2ccc(Cl)cc2)n1CCO
*A* > 100 µM (inactive)

*Q* Also need C[N+](C)(CCNc1ccc(NCC[N+](C)(C)Cc2ccc([N+](=O)[O-])cc2)c2c1C(=O)c1c(O)ccc(O)c1C2=O)Cc1ccc([N+](=O)[O-])cc1 , thanks.
*A* 18.7 µM (inactive)

*Q* Here is the next compound: COC(=O)C(Cc1c(C2Nc3ccccc3C2CC(NC(=O)CNC(C)=O)C(=O)OC)[nH]c2ccccc12)NC(=O)CNC(C)=O (centres undefined)
*A* > 100 µM (inactive)

*Q* Next record, please: Cn1c(=O)sc2cc(C(=S)N3CCCCC3)ccc21
*A* 57.9 µM (inactive)

*Q* What about CC(=O)CC1(OC(=O)C2C(C=C(C)C)C2(C)C)C(=O)Nc2ccccc21 (centres undefined) ?
*A* > 100 µM (inactive)

*Q* Again, but for Cc1cnc(/N=c2\sc(C)cn2-c2ncc(C)s2)s1
*A* > 100 µM (inactive)

*Q* Here is the next compound: CC(=O)OC(OC(C)=O)n1cc(C=O)c2ccccc21
*A* > 100 µM (inactive)

*Q* Lookup N#C/N=N/c1cc(Cl)c(/N=N/C#N)cc1Cl
*A* 97.5 µM (inactive)

*Q* What about this compound? COc1cc(O)c(/C=N/N=C(\N)NO)c(OC)c1
*A* > 10 µM (inactive)

*Q* Okay, and CC(C)(C)COC(=O)C(C)(C)NC(=O)C(CC(=O)OCc1ccccc1)NC(=O)OCc1ccccc1 (centres undefined) ?
*A* 21 µM (inactive)

*Q* Can you check COc1cc(/C=C2\CCc3ccccc3C2=O)cc(OC)c1OC next?
*A* 17 µM (inactive)

*Q* // same read-out, input: Cc1oncc1/N=C1\C=C(O)C(=O)c2ccccc21
*A* 17 µM (inactive)

*Q* Record: CS/C(=N/S(=O)(=O)c1ccc(Cl)cc1)NCCCN/C(=N\S(=O)(=O)c1ccc(Cl)cc1)SC
*A* 21.5 µM (inactive)

###

- Tested on: K562
- Procedure Summary: NCI tumour cell line growth inhibition, 48 h
Active and inactive are the calls of the source. Rule as the data show it: active = GI50 up to about 1.1 µM and inactive = higher.
Response enum: active, inactive

*Q* Which outcome was entered for the molecule COC[C@@H](/N=C/C(C)(C)C)C(C)C in this test?
*A* inactive

*Q* Next record, please: O=c1[nH]c(=O)n(Cc2ccccc2CO)cc1Sc1ccccc1
*A* inactive

*Q* Try this molecule next: Nc1n[c-](N)[n+](=O)c(N)c1NCO
*A* inactive

*Q* Next molecule up: O=C(/C=N/O)c1c(-c2ccccc2)[nH]c(-c2ccccc2)c1-c1ccccc1
*A* inactive

*Q* Further, for COc1ccc(S(=O)(=O)N/N=C/CN2C(=O)c3ccccc3C2=O)cc1 ?
*A* inactive

*Q* Queued: O=C(/N=S(/NC(=O)c1ccccc1)C(Cl)(Cl)Cl)c1ccccc1 (stereo unspecified)
*A* inactive

*Q* Input Oc1cc(F)cc2cccnc12
*A* active

*Q* Same for CC(=O)N1c2cc(/N=N/N(C)C)ccc2NC(=O)CC1C (stereo unspecified)
*A* inactive

*Q* Lookup COc1cc2c(cc1Cl)[n+]([O-])c(C#N)c(N1CCN(c3ccc([N+](=O)[O-])cc3)CC1)[n+]2[O-]
*A* inactive

*Q* Now this one: Cc1ccc(-c2c(C#N)c(-c3ccccc3)n(NS(=O)(=O)c3ccccc3)c(=O)c2C#N)cc1
*A* inactive

*Q* What about this molecule? COC(=O)C1(C)C=C(Nc2ccccc2)C(=O)N1c1ccccc1 (stereo unspecified)
*A* inactive

Entry source: ChEMBL document CHEMBL1201862
